Parameter IC50: see the listing below.
molecular target: VLA4 (Homo sapiens, UniProt P05556+P13612); construct: endogenous in cells; host or cells: Ramos cells; assay: Inhibition of VLA4-dependent adhesion of Ramos cells to BSA-CS1; format: cell-based; details: Ramos cells, BSA-CS1 coated wells, 2 mM MnCl2, 30 minutes at room temperature; read-out: IC50
Sequence (P13612 34-1032): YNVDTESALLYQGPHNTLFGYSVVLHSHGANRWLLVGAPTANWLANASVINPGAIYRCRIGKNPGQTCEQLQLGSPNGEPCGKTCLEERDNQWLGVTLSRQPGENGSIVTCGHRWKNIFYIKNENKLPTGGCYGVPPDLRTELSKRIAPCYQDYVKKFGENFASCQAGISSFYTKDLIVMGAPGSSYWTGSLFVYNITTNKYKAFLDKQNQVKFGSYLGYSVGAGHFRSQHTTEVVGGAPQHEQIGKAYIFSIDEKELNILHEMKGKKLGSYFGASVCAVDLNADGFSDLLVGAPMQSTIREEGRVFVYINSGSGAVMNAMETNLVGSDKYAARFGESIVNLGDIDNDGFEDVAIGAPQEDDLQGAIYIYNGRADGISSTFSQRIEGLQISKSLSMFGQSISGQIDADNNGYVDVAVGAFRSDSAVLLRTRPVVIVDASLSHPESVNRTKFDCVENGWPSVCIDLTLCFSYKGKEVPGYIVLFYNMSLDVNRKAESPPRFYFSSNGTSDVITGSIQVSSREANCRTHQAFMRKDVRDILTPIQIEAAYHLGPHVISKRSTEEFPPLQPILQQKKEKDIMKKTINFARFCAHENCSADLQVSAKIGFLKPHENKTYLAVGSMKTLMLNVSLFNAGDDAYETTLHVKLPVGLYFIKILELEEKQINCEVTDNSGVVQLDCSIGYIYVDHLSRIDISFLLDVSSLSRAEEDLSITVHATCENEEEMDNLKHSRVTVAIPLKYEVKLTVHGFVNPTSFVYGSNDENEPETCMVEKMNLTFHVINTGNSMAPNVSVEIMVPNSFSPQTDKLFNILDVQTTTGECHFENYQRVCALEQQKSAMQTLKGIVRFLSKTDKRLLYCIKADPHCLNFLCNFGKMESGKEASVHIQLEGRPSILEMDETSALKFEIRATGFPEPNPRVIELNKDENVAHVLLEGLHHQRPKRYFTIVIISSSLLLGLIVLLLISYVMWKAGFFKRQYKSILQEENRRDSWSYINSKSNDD
Sequence (P05556 21-798): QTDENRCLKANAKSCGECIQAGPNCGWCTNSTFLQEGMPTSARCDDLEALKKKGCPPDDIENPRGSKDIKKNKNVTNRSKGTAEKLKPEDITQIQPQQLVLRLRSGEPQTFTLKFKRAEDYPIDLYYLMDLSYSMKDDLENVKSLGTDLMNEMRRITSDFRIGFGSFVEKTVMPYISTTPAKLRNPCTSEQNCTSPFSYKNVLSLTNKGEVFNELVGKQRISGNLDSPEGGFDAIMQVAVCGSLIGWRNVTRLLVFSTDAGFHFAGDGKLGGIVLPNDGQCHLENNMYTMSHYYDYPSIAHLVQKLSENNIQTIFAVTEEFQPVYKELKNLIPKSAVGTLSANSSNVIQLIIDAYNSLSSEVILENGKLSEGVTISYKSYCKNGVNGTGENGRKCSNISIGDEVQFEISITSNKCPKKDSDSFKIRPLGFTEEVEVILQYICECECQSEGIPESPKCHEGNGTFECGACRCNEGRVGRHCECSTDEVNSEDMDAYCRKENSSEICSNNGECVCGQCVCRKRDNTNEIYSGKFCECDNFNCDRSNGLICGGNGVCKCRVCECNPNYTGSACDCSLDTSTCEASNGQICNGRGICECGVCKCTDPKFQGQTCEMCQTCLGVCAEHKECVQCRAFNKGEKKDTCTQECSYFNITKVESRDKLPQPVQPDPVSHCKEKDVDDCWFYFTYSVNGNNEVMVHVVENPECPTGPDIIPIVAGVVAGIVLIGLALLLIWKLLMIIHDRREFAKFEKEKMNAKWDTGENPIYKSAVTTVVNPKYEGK
Numbered stars: 1 amine (or outer) side, 2 acyl side, 3 side chain; on linkers, the order of the positions; unused ones are H or OH. Peptide text beside a SMILES is read from it. * marks the point of attachment. Suc = O=C(CCC(=O)[*:2])[*:1]; NHPh = c1ccc(N*)cc1

Below: 2 compounds and their reported IC50.
{"columns": ["compound", "measured on", "IC50"],
 "data": [
  ["COC(=O)[C@H](CCSC)NC(=O)[C@@H](NC(=O)[C@H](CC(=O)O)NC(=O)[C@H](CC(C)C)NC(=O)OC(C)(C)C)C(C)C [Compound 167] (HELM PEPTIDE1{[CC(C)(C)OC(=O)[*:2]].L.D.V.M.[CO[*:1]]}$$$$V2.0)", "VLA4 (Homo sapiens, UniProt P05556+P13612)", "> 10 µM"],
  ["CC(C)C[C@H](NC(=O)c1cc2ccccc2cn1)C(=O)N[C@@H](CC(=O)O)C(=O)N[C@@H](Cc1ccccc1)C(=O)O", "VLA4 (Homo sapiens, UniProt P05556+P13612)", "> 10 µM"]
]}

Write down IC50 measured for item CC(C)C[C@H](NC(=O)CCC(=O)Nc1ccccc1)C(=O)N[C@@H](CC(=O)O)C(=O)N[C@H](C(=O)O)C(C)C [Compound 107] ({NHPh-Suc}-Leu-Asp-Val-OH) > 10 µM

====

target: VLA4 (Homo sapiens, UniProt P05556+P13612); construct: endogenous in cells; host or cells: Ramos cells; assay: Inhibition of VLA4-dependent adhesion of Ramos cells to BSA-CS1; assay type: cell-based; details: Ramos cells, BSA-CS1 coated wells, 2 mM MnCl2, 30 minutes at room temperature; read-out: IC50
pIC50: −log10 of the molar value. Numbered stars: 1 amine (or outer) side, 2 acyl side, 3 side chain; on linkers, the order of the positions; unused ones are H or OH. Peptide text beside a SMILES is read from it. * marks the point of attachment. CO = O=C([*:1])[*:2]; NHPh = c1ccc(N*)cc1
value type: pIC50

{"columns": ["compound", "measured on", "pIC50"],
 "data": [
  ["CNC(=O)[C@@H](NC(=O)[C@H](CC(=O)O)NC(=O)[C@@H]1CCCN1C(=O)Cc1ccccc1)C(C)C [Compound 130] (HELM PEPTIDE1{[O=C(Cc1ccccc1)[*:2]].P.D.V.[CN[*:1]]}$$$$V2.0)", "VLA4 (Homo sapiens, UniProt P05556+P13612)", "< 5.00"],
  ["CNC(=O)[C@@H](NC(=O)[C@H](CC(=O)O)NC(=O)[C@H](CC(C)C)NC(=O)Nc1ccccc1)C(C)C [Compound 187] ({NHPh-CO}-Leu-Asp-Val-NHMe)", "VLA4 (Homo sapiens, UniProt P05556+P13612)", "< 5.00"],
  ["COC(=O)[C@H](C(C)C)N(C)C(=O)[C@H](CC(=O)O)NC(=O)[C@H](CC(C)C)NC(=O)CCc1ccc(O)cc1", "VLA4 (Homo sapiens, UniProt P05556+P13612)", "< 5.00"]
]}

Write down pIC50 measured for item `O=C(O)C[C@H](NC(=O)c1cc2ccccc2cn1)C(=O)N[C@@H](Cc1ccccc1)C(=O)O` < 5.00

Write down pIC50 measured for item `CC(C)C[C@H](NC(=O)Cc1ccc(NC(=O)Nc2ccccc2)cc1)C(=O)N[C@@H](CC(=O)O)C(=O)N[C@H](C(=O)N1CCCCC1)C(C)C` > 7.30

Write down pIC50 measured for item `CCCCCCNC(=O)[C@@H](NC(=O)[C@H](CC(=O)O)NC(=O)[C@H](CC(C)C)NC(=O)CCc1ccc(O)cc1)C(C)C` < 5.00

====

Parameter pIC50: see the listing below.
target: VLA4 (Homo sapiens, UniProt P05556+P13612); construct: endogenous in cells; host or cells: Ramos cells; assay: Inhibition of VLA4-dependent adhesion of Ramos cells to BSA-CS1; assay type: cell-based; details: Ramos cells, BSA-CS1 coated wells, 2 mM MnCl2, 30 minutes at room temperature; read-out: IC50
pIC50: −log10 of the molar value. Peptide text beside a SMILES is read from it.

Write down pIC50 measured for item `COc1ccc(C(=O)N[C@@H](CC(C)C)C(=O)N[C@@H](CC(=O)O)C(=O)NCC(C)C)cc1` < 5.00

Write down pIC50 measured for item `COC(=O)[C@@H](NC(=O)[C@H](CC(=O)O)NC(=O)[C@H](CC(C)C)NC(=O)CCc1ccc(O)cc1)C(C)C` < 5.00

Write down pIC50 measured for item `CC(C)C[C@H](NC(=O)c1ccc2ccccc2n1)C(=O)N[C@@H](CC(=O)O)C(=O)N[C@H](C(=O)Nc1ccc(F)cc1)C(C)C` < 5.00

Write down pIC50 measured for item `CCCCOC(=O)[C@@H](NC(=O)[C@H](CC(=O)O)NC(=O)[C@H](CC(C)C)NC(=O)c1ccc2ccccc2n1)[C@@H](C)O` < 5.00

Write down pIC50 measured for item `CC(C)C[C@H](NC(=O)CCCc1ccccc1)C(=O)N[C@@H](CC(=O)O)C(=O)N[C@H](C(=O)O)C(C)C` < 5.00

Write down pIC50 measured for item CNC(=O)[C@@H](NC(=O)[C@H](CC(=O)O)NC(=O)[C@H](CC(C)C)NC(=O)Cc1ccccc1)C(C)C [Compound 181] (HELM PEPTIDE1{[O=C(Cc1ccccc1)[*:2]].L.D.V.[CN[*:1]]}$$$$V2.0) < 5.00

====

molecular target: VLA4 (Homo sapiens, UniProt P05556+P13612); construct: endogenous in cells; host or cells: Ramos cells; test: Inhibition of VLA4-dependent adhesion of Ramos cells to BSA-CS1; type: cell-based; settings: Ramos cells, BSA-CS1 coated wells, 2 mM MnCl2, 30 minutes at room temperature; read-out: IC50
Numbered stars: 1 amine (or outer) side, 2 acyl side, 3 side chain; on linkers, the order of the positions; unused ones are H or OH. Square brackets hold non-standard residues; d marks the D form. Peptide text beside a SMILES is read from it. * marks the point of attachment. X2 = O=C(Cc1ccc(N[*:1])cc1)[*:2]; CO = O=C([*:1])[*:2]; NHPh = c1ccc(N*)cc1
Parameter IC50: see the listing below.

Below: 3 compounds and their reported IC50.
{"columns": ["compound", "IC50"],
 "data": [
  ["CC[C@H](C)[C@H](NC(=O)[C@H](CC(=O)O)NC(=O)[C@H](CCC(N)=O)NC(=O)Cc1ccc(NC(=O)Nc2ccccc2C)cc1)C(N)=O", "< 0.05 µM"],
  ["COC(=O)[C@@H]1CCCN1C(=O)[C@@H](NC(=O)[C@H](CC(=O)O)NC(=O)[C@H](CC(C)C)NC(=O)OC(C)(C)C)C(C)C", "> 10 µM"],
  ["CC(C)[C@H](NC(=O)[C@H](CC(=O)O)NC(=O)OC(C)(C)C)C(=O)O [Compound 68] (HELM PEPTIDE1{[CC(C)(C)OC(=O)[*:2]].D.V}$$$$V2.0)", "> 10 µM"]
]}

Write down IC50 measured for item CC(C)CC(NC(=O)Cc1ccc(NC(=O)Nc2ccccc2)cc1)C(=O)NC(CC(=O)O)C(=O)NC(C(=O)N1CCCC1C(N)=O)C(C)C (centres unmarked) [Compound 211] ({NHPh-CO}-[X2]LDVP-NH2; configuration not given here) 0.05 to 10 µM

Write down IC50 measured for item `CC(C)C[C@H](NC(=O)Cc1ccc(NC(=O)Nc2ccccc2)cc1)C(=O)N[C@@H](CC(=O)O)C(=O)N[C@H](C(=O)O)C(C)C` < 0.05 µM

====

Parameter IC50: see the listing below.
Target: VLA4 (Homo sapiens, UniProt P05556+P13612)
Construct: endogenous in cells; host or cells: Ramos cells
Experiment: Inhibition of VLA4-dependent adhesion of Ramos cells to BSA-CS1
Assay type: cell-based
Conditions: Ramos cells, BSA-CS1 coated wells, 2 mM MnCl2, 30 minutes at room temperature; read-out: IC50
Experimental: For example, the cell adhesion inhibitory activity of these compounds may be measured by determining the concentration of inhibitor required to block the binding of VLA-4-expressing cells to fibronectin- or CS1-coated plates. […] Inhibition of binding is measured by quantitating the fluorescence or radioactivity bound to the plate for each of the various concentrations of test compound, as well as for controls containing no test compound. […]
Peptide text beside a SMILES is read from it.

Write down IC50 measured for item CNC(=O)[C@@H](NC(=O)[C@H](CC(=O)O)NC(=O)[C@H](CO)NC(=O)Cc1ccccc1)C(C)C [Compound 349] (HELM PEPTIDE1{[O=C(Cc1ccccc1)[*:2]].S.D.V.[CN[*:1]]}$$$$V2.0) > 10 µM

Write down IC50 measured for item CC(C)C[C@H](NC(=O)C(Cc1ccc(O)cc1)N(S(C)(=O)=O)S(C)(=O)=O)C(=O)N[C@@H](CC(=O)O)C(=O)N[C@H](C(=O)O)C(C)C (stereo partly drawn) > 10 µM

Write down IC50 measured for item `COC(=O)[C@@H](NC(=O)[C@H](CC(=O)O)NC(=O)[C@H](CC(C)C)N(CCc1ccccc1)C(=O)CCc1ccccc1)C(C)C` > 10 µM

Write down IC50 measured for item `CC(C)C[C@H](NC(=O)[C@H](CC(=O)O)NC(=O)c1cc2ccccc2cn1)C(=O)O` > 10 µM

Write down IC50 measured for item `CC(C)[C@H](NC(=O)[C@H](CC(=O)O)NC(=O)[C@H](Cc1ccccc1)NC(=O)c1cc2ccccc2cn1)C(=O)O` > 10 µM
